- subjectOfTest: Tyrosine-protein kinase JAK1 (Homo sapiens) (UniProt P23458)
- Sequence (P23458 whole entry): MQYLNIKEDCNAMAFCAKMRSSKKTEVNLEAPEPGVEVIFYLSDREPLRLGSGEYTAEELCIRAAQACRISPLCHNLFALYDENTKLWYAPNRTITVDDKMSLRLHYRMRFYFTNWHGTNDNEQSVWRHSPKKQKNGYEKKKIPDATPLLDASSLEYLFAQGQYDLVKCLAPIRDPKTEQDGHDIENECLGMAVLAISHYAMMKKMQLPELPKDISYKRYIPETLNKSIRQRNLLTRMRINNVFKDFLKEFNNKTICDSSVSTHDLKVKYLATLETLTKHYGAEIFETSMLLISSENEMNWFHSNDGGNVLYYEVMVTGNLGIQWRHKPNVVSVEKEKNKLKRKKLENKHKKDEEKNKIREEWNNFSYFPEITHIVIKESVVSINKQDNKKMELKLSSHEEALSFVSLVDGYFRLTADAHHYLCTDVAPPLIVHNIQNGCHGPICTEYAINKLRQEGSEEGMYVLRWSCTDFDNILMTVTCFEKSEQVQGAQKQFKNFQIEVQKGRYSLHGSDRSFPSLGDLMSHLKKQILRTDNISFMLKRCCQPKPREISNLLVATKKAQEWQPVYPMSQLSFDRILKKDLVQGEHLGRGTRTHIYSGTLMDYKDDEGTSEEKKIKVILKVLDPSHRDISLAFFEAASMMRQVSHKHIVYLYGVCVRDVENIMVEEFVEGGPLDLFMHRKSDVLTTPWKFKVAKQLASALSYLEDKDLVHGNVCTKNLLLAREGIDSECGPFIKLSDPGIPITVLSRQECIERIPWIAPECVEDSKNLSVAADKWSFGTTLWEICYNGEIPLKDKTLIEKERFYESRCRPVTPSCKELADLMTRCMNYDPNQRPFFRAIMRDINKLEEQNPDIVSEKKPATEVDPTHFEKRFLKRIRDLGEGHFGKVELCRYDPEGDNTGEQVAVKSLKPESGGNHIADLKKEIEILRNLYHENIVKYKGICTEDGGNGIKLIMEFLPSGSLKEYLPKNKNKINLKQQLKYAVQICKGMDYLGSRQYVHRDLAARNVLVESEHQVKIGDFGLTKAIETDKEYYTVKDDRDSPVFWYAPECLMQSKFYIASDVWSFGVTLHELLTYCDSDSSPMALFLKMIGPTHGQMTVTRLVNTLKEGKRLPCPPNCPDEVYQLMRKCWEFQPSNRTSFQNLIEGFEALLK
- runConditions: at 0.1 µM
- Description: GSK_PKIS: JAK1 mean inhibition at 0.1 uM [Nanosyn]
Below, each entry is listed alongside its reported inhibition.

- molecule: "NS(=O)(=O)c1ccc(Nc2ncc(-c3ccccc3)o2)cc1"
  inhibition: "3.09%"
- molecule: "CN1CCC(n2cnc(-c3ccc(F)cc3)c2-c2ccnc(N)n2)CC1"
  inhibition: "1.99%"
- molecule: "c1cc(-c2cnn3nc(N4CCOCC4)ccc23)nc(NC2CC2)n1"
  inhibition: "0.54%"

// next entry
INPUT: # lookup: inhibition of CC1=C(C(=O)Nc2cc(Cl)c3[nH]ncc3c2)C(c2ccc(C(F)(F)F)cc2)CC(=O)N1 (centres undefined)
OUTPUT: 9.58%

* * *

Each item that follows carries a reported inhibition.
- subjectOfTest: cGMP-dependent protein kinase 1 (Homo sapiens) (UniProt Q13976)
- Sequence (Q13976 whole entry): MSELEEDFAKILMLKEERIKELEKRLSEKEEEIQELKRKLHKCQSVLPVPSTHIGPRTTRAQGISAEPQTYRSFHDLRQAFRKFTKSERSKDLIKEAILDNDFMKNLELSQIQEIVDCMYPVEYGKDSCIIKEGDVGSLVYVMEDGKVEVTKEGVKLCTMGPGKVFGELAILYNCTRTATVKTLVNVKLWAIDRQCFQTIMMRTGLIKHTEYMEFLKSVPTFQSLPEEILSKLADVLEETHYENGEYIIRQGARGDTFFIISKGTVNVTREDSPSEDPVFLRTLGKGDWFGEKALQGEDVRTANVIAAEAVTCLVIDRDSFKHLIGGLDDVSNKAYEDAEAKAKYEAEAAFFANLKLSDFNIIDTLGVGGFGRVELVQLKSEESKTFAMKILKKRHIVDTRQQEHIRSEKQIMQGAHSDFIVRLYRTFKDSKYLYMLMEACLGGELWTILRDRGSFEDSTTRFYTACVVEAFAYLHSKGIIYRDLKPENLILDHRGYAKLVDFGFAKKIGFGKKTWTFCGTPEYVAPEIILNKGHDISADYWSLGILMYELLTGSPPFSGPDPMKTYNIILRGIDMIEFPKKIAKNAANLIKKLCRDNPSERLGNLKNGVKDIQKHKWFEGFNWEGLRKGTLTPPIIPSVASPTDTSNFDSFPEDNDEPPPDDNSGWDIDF
- runConditions: at 0.1 µM
- Description: GSK_PKIS: PRKG1 mean inhibition at 0.1 uM [Nanosyn]
Please reply with the bare figure in % and do not write the unit itself.

- chemicalSmiles: "c1ccc(COc2ccc(Nc3ncnc4ccc(-c5ccco5)cc34)cc2)cc1"
  subjectOfTest: "cGMP-dependent protein kinase 1 (Homo sapiens) (UniProt Q13976)"
  measuredAttribute: "inhibition"
  measured: -0.44
- chemicalSmiles: "Fc1ccc(-c2cc(-c3c[nH]nc3-c3ccccn3)ccn2)cc1"
  subjectOfTest: "cGMP-dependent protein kinase 1 (Homo sapiens) (UniProt Q13976)"
  measuredAttribute: "inhibition"
  measured: 1.49
- chemicalSmiles: "Cc1ccc2c(-c3ccnc(Nc4ccccc4)n3)c(-c3ccc(F)cc3)nn2n1"
  subjectOfTest: "cGMP-dependent protein kinase 1 (Homo sapiens) (UniProt Q13976)"
  measuredAttribute: "inhibition"
  measured: 1.32
- chemicalSmiles: "Fc1ccc(-c2nn3ccccc3c2-c2ccncc2)cc1"
  subjectOfTest: "cGMP-dependent protein kinase 1 (Homo sapiens) (UniProt Q13976)"
  measuredAttribute: "inhibition"
  measured: 3.89
- chemicalSmiles: "Clc1ccc(-c2nn3ncccc3c2-c2ccnc(Nc3ccccc3)n2)cc1"
  subjectOfTest: "cGMP-dependent protein kinase 1 (Homo sapiens) (UniProt Q13976)"
  measuredAttribute: "inhibition"
  measured: 3.3

INPUT: Any idea what inhibition came out for NS(=O)(=O)c1ccc(Nc2ncc(-c3ccccc3)o2)cc1 on cGMP-dependent protein kinase 1 (Homo sapiens) (UniProt Q13976)?
OUTPUT: 1.9

* * *

Reported inhibition values are given for each entry in this list.
- Tested on: Mast/stem cell growth factor receptor Kit (Homo sapiens), P10721 [D816V]
- Sequence (P10721 whole entry D816V): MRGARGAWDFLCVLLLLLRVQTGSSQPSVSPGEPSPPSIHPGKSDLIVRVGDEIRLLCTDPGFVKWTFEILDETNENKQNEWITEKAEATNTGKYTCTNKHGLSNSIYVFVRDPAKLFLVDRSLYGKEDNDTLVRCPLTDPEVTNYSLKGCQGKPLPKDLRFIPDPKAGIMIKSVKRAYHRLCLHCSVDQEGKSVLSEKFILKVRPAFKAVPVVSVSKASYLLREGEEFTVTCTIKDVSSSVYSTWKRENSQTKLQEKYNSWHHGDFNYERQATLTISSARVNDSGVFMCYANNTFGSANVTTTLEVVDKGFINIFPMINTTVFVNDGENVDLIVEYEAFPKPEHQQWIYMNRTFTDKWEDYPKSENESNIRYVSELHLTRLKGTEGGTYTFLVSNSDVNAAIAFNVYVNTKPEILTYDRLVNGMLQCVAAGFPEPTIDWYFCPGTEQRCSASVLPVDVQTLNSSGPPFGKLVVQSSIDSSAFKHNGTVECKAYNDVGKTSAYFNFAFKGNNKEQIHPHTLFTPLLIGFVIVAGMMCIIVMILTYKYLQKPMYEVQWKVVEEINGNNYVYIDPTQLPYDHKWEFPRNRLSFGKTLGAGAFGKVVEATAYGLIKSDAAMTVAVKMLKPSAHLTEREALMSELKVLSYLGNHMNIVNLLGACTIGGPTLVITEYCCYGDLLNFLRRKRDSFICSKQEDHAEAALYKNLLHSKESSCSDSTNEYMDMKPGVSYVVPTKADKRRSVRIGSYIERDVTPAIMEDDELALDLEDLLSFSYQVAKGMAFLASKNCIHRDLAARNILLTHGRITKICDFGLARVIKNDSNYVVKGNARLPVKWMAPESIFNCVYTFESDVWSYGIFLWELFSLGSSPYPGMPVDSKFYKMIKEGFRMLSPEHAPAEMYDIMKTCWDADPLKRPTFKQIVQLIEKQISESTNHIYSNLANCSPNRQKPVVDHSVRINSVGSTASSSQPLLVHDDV
- runConditions: at 0.1 µM
Number plus unit, in that order.

INPUT: Form field - read-out: inhibition; system: Mast/stem cell growth factor receptor Kit (Homo sapiens), P10721 [D816V]; submitted item: CCn1c(-c2nonc2N)nc2cnc(Oc3cccc(NC(=O)c4ccc(N(C)C)cc4)c3)cc21
OUTPUT: 0.14%

INPUT: State its inhibition on Mast/stem cell growth factor receptor Kit (Homo sapiens), P10721 [D816V]: Nc1nc(-c2ccc(F)cc2)c(-c2ccc3ncccc3n2)s1
OUTPUT: 1.91%

INPUT: # returns recorded inhibition (system: Mast/stem cell growth factor receptor Kit (Homo sapiens), P10721 [D816V]) for CCNC(=O)O[C@H]1CN[C@H](C#Cc2cc3ncnc(Nc4ccc(OCc5cccc(F)c5)c(Cl)c4)c3s2)C1
OUTPUT: 2.43%

INPUT: Query inhibition on Mast/stem cell growth factor receptor Kit (Homo sapiens), P10721 [D816V] for COc1cccc(-n2ncc3c(N/N=C/c4ccc(F)cc4)ncnc32)c1
OUTPUT: 7.16%

INPUT: Query the reported inhibition for Mast/stem cell growth factor receptor Kit (Homo sapiens), P10721 [D816V]; item: COc1ccc(CNC(=O)c2ccc(-c3cc(-c4nnc(C)o4)ccc3C)cc2)cc1
OUTPUT: -5.34%

INPUT: Give recorded inhibition with Mast/stem cell growth factor receptor Kit (Homo sapiens), P10721 [D816V] for the following compound: CS(=O)(=O)CCNCc1coc(-c2ccc3ncnc(Nc4ccc(OCc5ccccc5)cc4)c3c2)c1
OUTPUT: 0.03%

INPUT: # get_value(readout= inhibition, system= Mast/stem cell growth factor receptor Kit (Homo sapiens), P10721 [D816V]) for Fc1cccc(COc2ccc(Nc3ncnc4sc(-c5ccco5)cc34)cc2Cl)c1
OUTPUT: 3.37%

INPUT: Kindly state the measured inhibition obtained for CCCN(CCS(C)(=O)=O)Cc1ccc(-c2ccc3ncnc(Nc4ccc(OCc5cccc(F)c5)c(Cl)c4)c3c2)o1 with Mast/stem cell growth factor receptor Kit (Homo sapiens), P10721 [D816V].
OUTPUT: 1.86%

INPUT: I'm curious: which inhibition was measured for CNC(=O)c1cncc(/C=C/c2ccccc2Cl)c1 tested on Mast/stem cell growth factor receptor Kit (Homo sapiens), P10721 [D816V]?
OUTPUT: -0.76%

* * *

Parameter inhibition: see the listing below.
- subjectOfTest: Inhibitor of nuclear factor kappa-B kinase subunit epsilon (Homo sapiens)
- runConditions: at 1 µM
Please state the figure in %; there is no need to write the unit.

Recorded inhibition, per entry:
- chemicalSmiles: "Nc1ncc(-c2cccc(S(N)(=O)=O)c2)c2scc(-c3ccc(F)c(Cl)c3)c12"
  measured: 6.28
- chemicalSmiles: "COc1ccc(-c2cc(-c3c[nH]nc3-c3ccccn3)ccn2)cc1"
  measured: 9.71
- chemicalSmiles: "Cc1ccc2c(-c3ccnc(Nc4ccccc4)n3)c(-c3ccc(F)cc3)nn2n1"
  measured: 3.29
- chemicalSmiles: "CC(C)(CO)CNC(=O)c1ccc2c(c1)/C(=N/Nc1ccc(S(N)(=O)=O)cc1)C(=O)N2"
  measured: 59.7
- chemicalSmiles: "CNC(=O)c1cccc(C#Cc2cncnc2Nc2ccc(OCc3cccc(F)c3)c(Cl)c2)c1"
  measured: 1.01

INPUT: Query the reported inhibition for Inhibitor of nuclear factor kappa-B kinase subunit epsilon (Homo sapiens); item: c1ccc(COc2ccc(Nc3ncnc4ccc(-c5ccco5)cc34)cc2)cc1
OUTPUT: 3.49

INPUT: Param readout= inhibition; system= Inhibitor of nuclear factor kappa-B kinase subunit epsilon (Homo sapiens); entry= CS(=O)(=O)CCNCc1coc(-c2ccc3ncnc(Nc4ccc(OCc5ccccc5)cc4)c3c2)c1 ; returns value.
OUTPUT: 4.57

INPUT: GET /values?readout=inhibition&system=Inhibitor of nuclear factor kappa-B kinase subunit epsilon (Homo sapiens)&item= COc1ccc(-c2nn3ncccc3c2-c2ccnc(Nc3ccc4c(c3)OCCO4)n2)cc1
OUTPUT: -0.27

INPUT: Find the measured inhibition: item CCn1c(-c2nonc2N)nc2cnc(Oc3cccc(NC(=O)c4ccc(N(C)C)cc4)c3)cc21 , target or system Inhibitor of nuclear factor kappa-B kinase subunit epsilon (Homo sapiens).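 Note: reported values are averaged percent inhibition figures against human IKKε.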
OUTPUT: 14.1

* * *

The reader will find reported inhibition values listed item by item below.
- subjectOfTest: Mitogen-activated protein kinase kinase kinase kinase 2 (Homo sapiens) (UniProt Q12851)
- Sequence (whole entry): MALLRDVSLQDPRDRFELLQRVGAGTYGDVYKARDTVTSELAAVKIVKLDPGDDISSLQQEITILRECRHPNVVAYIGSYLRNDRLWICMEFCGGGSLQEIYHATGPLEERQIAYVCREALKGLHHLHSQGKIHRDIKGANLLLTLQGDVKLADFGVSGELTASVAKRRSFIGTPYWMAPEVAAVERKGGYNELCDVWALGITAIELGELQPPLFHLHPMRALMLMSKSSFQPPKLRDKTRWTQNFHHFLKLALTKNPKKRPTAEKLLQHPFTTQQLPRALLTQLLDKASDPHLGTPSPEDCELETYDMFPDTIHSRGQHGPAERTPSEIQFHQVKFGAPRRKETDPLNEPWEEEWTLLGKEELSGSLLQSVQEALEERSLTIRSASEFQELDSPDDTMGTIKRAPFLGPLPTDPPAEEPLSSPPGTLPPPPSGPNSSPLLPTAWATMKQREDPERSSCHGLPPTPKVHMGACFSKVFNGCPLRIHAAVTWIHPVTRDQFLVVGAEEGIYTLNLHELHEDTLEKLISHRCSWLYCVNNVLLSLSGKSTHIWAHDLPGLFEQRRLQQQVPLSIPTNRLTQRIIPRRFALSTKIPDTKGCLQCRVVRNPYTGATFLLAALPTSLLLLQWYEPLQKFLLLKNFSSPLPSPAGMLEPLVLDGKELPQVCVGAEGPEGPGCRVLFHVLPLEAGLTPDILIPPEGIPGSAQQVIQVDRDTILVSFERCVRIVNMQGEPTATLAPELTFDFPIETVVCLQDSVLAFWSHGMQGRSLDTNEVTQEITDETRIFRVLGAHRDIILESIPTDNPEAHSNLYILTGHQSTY
- runConditions: at 0.1 µM
Output should be the measured figure followed by the unit it is expressed in.

Solved cases below.
- compound: "[O-][S+]1CCN(Cc2ccc(-c3ccc4ncnc(Nc5ccc(OCc6cccc(F)c6)c(Cl)c5)c4c3)o2)CC1"
  subjectOfTest: "Mitogen-activated protein kinase kinase kinase kinase 2 (Homo sapiens) (UniProt Q12851)"
  inhibition: "1.81%"
- compound: "CCn1cc(-c2ccnc3[nH]ccc23)c(-c2cccc(NC(=O)Nc3ccc(OCc4ccccc4)cc3)c2)n1"
  subjectOfTest: "Mitogen-activated protein kinase kinase kinase kinase 2 (Homo sapiens) (UniProt Q12851)"
  inhibition: "0.73%"

INPUT: inhibition lookup needed for O=C(Nc1n[nH]c2cc(-c3ccc(F)cc3)ccc12)C1CC1 , thanks.
OUTPUT: 1.48%
